# Protocol notes: Plasma pharmacokinetics
# Type: in vivo, human
# Applied conditions: human, plasma, intravenous, 350 mg
Quantity measured: clearance

> print(dat)
                                smiles.text  measured.result
1  CC[C@@H]1C(=O)N(C)c2cnc(Nc3ccc(C(=O)N[C@H]4CC[C@H](N5CCN(CC6CC6)CC5)CC4)cc3OC)nc2N1C(C)C       669 mL/min

###

# Protocol notes: Plasma pharmacokinetics
# Type: in vivo, human
# Applied conditions: human, plasma, intravenous, 450 mg
Quantity measured: Tmax (h)

> print(dat)
                                smiles.text  unit.of.measure  measured.result
1  CC[C@@H]1C(=O)N(C)c2cnc(Nc3ccc(C(=O)N[C@H]4CC[C@H](N5CCN(CC6CC6)CC5)CC4)cc3OC)nc2N1C(C)C                h             1.53
